Cited source for all entries: patent US20260232732A1

# system.tested: T1, biotin-peptide TSPIPNMADD (human)
# T1 peptide: Biotin-TSPIPNMADD
# assay.info: ELISA biotin-peptide; scFv 10 ug/mL; repII
Where no end group is shown, it is not given here. The star is where a group is joined. Biotin = O=C1N[C@H]2[C@H](CS[C@H]2CCCCC(=O)*)N1
measurement.kind: OD450
Form field: result (number plus unit)

Record request: OD450 value, item Comparative antibody 2 (Comp-2) scFv, 243LO326 (VH SEQ ID NO: 51 and VL SEQ ID NO: 52 of WO 2022/195028 A2), His-tagged (scFv) scFv: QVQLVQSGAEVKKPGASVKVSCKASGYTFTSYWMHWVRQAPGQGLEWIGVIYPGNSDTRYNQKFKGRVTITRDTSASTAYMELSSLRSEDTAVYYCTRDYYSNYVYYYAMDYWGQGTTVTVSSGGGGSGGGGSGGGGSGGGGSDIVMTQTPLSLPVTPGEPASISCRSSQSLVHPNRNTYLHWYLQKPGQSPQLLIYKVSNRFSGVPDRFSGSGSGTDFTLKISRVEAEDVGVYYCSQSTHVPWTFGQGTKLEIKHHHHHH
0.05 OD
